target: T1, Anti-CD28 Fab (SEQ ID NOs: 202, 203); assay: phage ELISA, Fab on plate;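 further: crude clonal phage supernatants added to wells pretreated with blocking buffer with or without CD28 antigen, then bound phage read out via HRP-linked anti-M13 antibody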
T1 construct: biotinylated and captured on neutravidin coated plates in the phage ELISA
T1 sequence (VH, as listed by the source, chain 1 of 2): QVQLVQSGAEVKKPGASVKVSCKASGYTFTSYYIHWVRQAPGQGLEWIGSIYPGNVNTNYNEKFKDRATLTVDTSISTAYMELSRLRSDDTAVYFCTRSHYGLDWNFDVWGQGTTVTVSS
T1 sequence (VL, as listed by the source, chain 2 of 2): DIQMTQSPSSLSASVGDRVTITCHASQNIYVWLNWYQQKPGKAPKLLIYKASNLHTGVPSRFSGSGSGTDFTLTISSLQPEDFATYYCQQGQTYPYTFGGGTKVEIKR
Property: Anti-CD28 Fab (SEQ ID NOs: 202, 203) signal; scope: individual binders
Give the value as a plain number.

YCVGHYPEYMEKCL [Phage-697]    1.22
YCEGHMGEYMLKCL [Phage-735]    1.1
YCEGHRAEYMSKCL [Phage-716]    1.16
YCAGHAEEYMLKCL [Phage-737]    1.09

Consider the record given below.
Q: Quote Anti-CD28 Fab (SEQ ID NOs: 202, 203) signal reported for YCEGHSQQYMWKCL [Phage-711] please.
Result: 1.17
